ELISA_avg overview
system_under_test: T1, CD123 (Homo sapiens (Human), UniProt P26951 19-305, limits assumed)
T1 construct: The CD123 construct used in the ELISA is not described; also called CD123-Signal
T1 sequence: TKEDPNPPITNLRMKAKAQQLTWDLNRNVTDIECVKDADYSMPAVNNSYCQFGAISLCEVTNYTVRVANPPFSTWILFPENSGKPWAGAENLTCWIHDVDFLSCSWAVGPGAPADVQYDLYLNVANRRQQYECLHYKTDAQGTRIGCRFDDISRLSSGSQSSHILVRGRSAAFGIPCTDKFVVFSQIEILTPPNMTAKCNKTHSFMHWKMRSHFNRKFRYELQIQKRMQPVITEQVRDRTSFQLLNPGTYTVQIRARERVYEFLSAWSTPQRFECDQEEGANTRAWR
experiment_summary: ELISA
Set-up: unit not given here
A bare number is all that is needed in reply.

Ask: // fetch ELISA_avg given entry D domain of SEQ ID NO: 492 (designed binder) MGSWIFFKQDLAEIKLNLEALGGSEAELAWFEDDIAWFESHLQDYKGKGNPEVEALRKEAAAIRDELQAYRHN
Result: 3.8

Ask: Look up ELISA_avg of D domain of SEQ ID NO: 585 (designed binder) MGSWYEFESRLEAIWWRLEALGGSEAELAQFEQYIADFEQHLQWYKGKGNPEVEALDWEADAIWLELQAYRHN and report it.
Result: 4.4

Ask: Output ELISA_avg of D domain of SEQ ID NO: 359 (designed binder) MGSWTEFSIRLEAIYDRLVALGGSEAELAAFEKEIAAFESELQAYKGKGNPEVEVLRTYAAFIRHELQAYRHN
Result: 10.2

Ask: Given the binder D domain of SEQ ID NO: 523 (designed binder) MGSWYDFKYDLAEIKMDLEALGGSEAELAQFEFDIAFFEEELQDYKGKGNPEVEALRKEAAAIRDELQAYRHN , write its reported ELISA_avg.
Result: 3.2

Now examine the next entry.
Ask: Look up and report measured ELISA_avg for this entry: D domain of SEQ ID NO: 474 (designed binder) MGSWIVFKDDLADIKRWLEALGGSEAELAMFEDEIADFEWQLQDYKGKGNPEVEALRKEAAAIRDELQAYRHN
Result: 3.9
